experiment: Rat PK study #4 (Compound A PO 0.2 and 1.0 mg/kg, propylene glycol formulation); type: in vivo, Lewis rats; conditions: male, Lewis, rat, plasma, po, 1 mg/kg, 1 mg/kg PO, propylene glycol-based formulation; mean; read-out: Cmax
Property name: Cmax (ng/mL)
Use ng/mL as the unit, but write only the number.

Ask | Quick one: Cmax of Cn1cc(-c2ccccc2)c(-c2cn(C)c(=O)c3[nH]c(-c4cnn(C(F)(F)F)c4)cc23)cc1=O ?
Reply | 38.6

====

test: CIA study: pharmacokinetics / plasma concentration after oral administration; type: in vivo, Lewis rats; conditions: Lewis, rat, plasma, po, 3 mg/kg, CIA-induced animals, day 0, 3 mg/kg, individual test subjects; read-out: T1/2 (converted)
Property name: half-life (h)
Use h as the unit, but write only the number.

Ask | Quick one: half-life of Cn1cc(-c2ccccc2)c(-c2cn(C)c(=O)c3[nH]c(-c4cnn(C(F)(F)F)c4)cc23)cc1=O ?
Reply | 9.19

====

target: BRD4 BD2 (Homo sapiens, UniProt O60885); construct: HEK293 cells were transfected using NanoLuc-BRD4-BD1 or NanoLuc-BRD4-BD2 fusion vectors; assay: NanoBRET bromodomain assay, NanoLuc-BRD4-BD2 in HEK293 cells
pIC50: −log10 of the molar value.
Property name: pIC50

Ask | // fetch BRD4 BD2 (Homo sapiens, UniProt O60885) pIC50 for Cn1ccc(-c2cc3c(-c4cc(=O)n(C)cc4-c4ccccc4)cn(C)c(=O)c3[nH]2)cc1=O
Reply | 6.70 to 7.30

Ask | Can you check Cn1cc(-c2cc(=O)n(CCOC(F)F)cc2-c2ccccc2)c2cc(-c3cnn(C(F)(F)F)c3)[nH]c2c1=O next?
Reply | > 8.00

Ask | Can you check CSCCn1cc(-c2ccccc2)c(-c2cn(C)c(=O)c3[nH]c(-c4cnn(C(F)(F)F)c4)cc23)cc1=O next?
Reply | > 8.00

Ask | Can you check Cc1cccc(C)c1Oc1cn(C)c(=O)cc1-c1cn(C)c(=O)c2[nH]c(-c3cc(F)c(F)cc3F)cc12 next?
Reply | 7.30 to 8.00

Ask | Can you check COCc1cccc(-c2cn(C)c(=O)cc2-c2cn(C)c(=O)c3[nH]c(-c4cnn(C(F)(F)F)c4)cc23)c1 next?
Reply | > 8.00

Ask | Can you check Cc1cccc(C)c1Oc1cn(C)c(=O)cc1-c1cn(C)c(=O)c2[nH]c(-c3cnn(CC(F)(F)F)c3C)cc12 next?
Reply | > 8.00

Ask | Can you check Cn1cc(-c2cc(=O)n(CCO)cc2-c2ccccc2)c2cc(-c3cnn(C(F)(F)F)c3)[nH]c2c1=O next?
Reply | 7.30 to 8.00

Ask | Can you check Cc1cccc(C)c1Oc1cn(C2CC2)c(=O)cc1-c1cn(C)c(=O)c2[nH]c(-c3cn(C)nc3C)cc12 next?
Reply | 7.30 to 8.00

Ask | Can you check COCCOc1cccc(-c2cn(C)c(=O)cc2-c2cn(C)c(=O)c3[nH]c(-c4ccc(F)cc4F)cc23)c1 next?
Reply | > 8.00

Ask | Can you check Cn1cc(-c2ccccc2)c(-c2cn(C)c(=O)c3[nH]c(-c4cccnc4)cc23)cc1=O next?
Reply | > 8.00

Ask | Can you check Cc1cccc(C)c1Oc1cn(C)c(=O)cc1-c1cn(C)c(=O)c2[nH]c(-c3ccccn3)cc12 next?
Reply | 7.30 to 8.00

Ask | Can you check Cc1cccc(C)c1Oc1cn(C)c(=O)cc1-c1cn(C)c(=O)c2[nH]c(-c3cnn(CC#N)c3)cc12 next?
Reply | 7.30 to 8.00

Ask | Can you check Cc1cccc(C)c1Oc1cn(C)c(=O)cc1-c1cn(C)c(=O)c2[nH]c(-c3cnn(CC(F)(F)F)c3)cc12 next?
Reply | 7.30 to 8.00

Ask | Can you check CCCn1cc(-c2cc3c(-c4cc(=O)n(C)cc4Oc4c(C)cccc4C)cn(C)c(=O)c3[nH]2)cn1 next?
Reply | > 8.00

Ask | Can you check Cn1cc(-c2cccc(C(C)(C)O)c2)c(-c2cn(C)c(=O)c3[nH]c(-c4ccc(F)cc4F)cc23)cc1=O next?
Reply | > 8.00

Origin of measurements: patent US20260217701A1
